Origin of the recorded values: PubChem BioAssay (Tox21)

- protocol_text: qHTS assay to identify small molecule agonists of H2AX - cell viability counter screen (AID 1224847); also: nearly all actives have a fitted effect of over 30% in size
- stated_conditions: CHO-K1 viability, CellTiter-Glo luminescence, 3 h; series mostly up to 154 µM
Inconclusive results are not listed. Active and inactive are the calls of the source. Calls follow the shape of the full dose curve.
Outcomes: active, inactive

BrC(Br)Br: inactive
CN(C)C(=S)[S-].CN(C)C(=S)[S-].[Cu+2]: active
CCC(C)c1cc(C(C)(C)C)cc(-n2nc3ccccc3n2)c1O (stereo not given): inactive
N#CCCSCCC#N: inactive
N#CCc1ccc(Cl)cc1: inactive
CC(=O)Nc1ccc2c(c1)Cc1ccccc1-2: inactive
O=C(O)C1C2CCC(O2)C1C(=O)O (stereo not given): inactive
C[C@@H](Oc1ccc(Cl)cc1Cl)C(=O)O: inactive
N#Cc1ccccc1N: inactive
COc1cc(N)c(Cl)cc1C(=O)NC1CN2CCC1CC2 (stereo not given): inactive
CC(c1ccc(O)cc1)c1ccc(O)cc1: inactive
CCOC(=O)CC(=O)CCl: inactive
N#Cc1ccccc1Cl: inactive
O=c1ssc(Cl)c1Cl: active
ClC(Cl)=C(Cl)Cl: inactive

---

- protocol_text: qHTS assay to identify small molecule agonists of the estrogen related receptor signaling pathway with the pleiotropic PPARgamma coactivator (PGC) from Tox21 10K library (AID 1224842); also: nearly all actives have a fitted effect of over 15% in size
- stated_conditions: PGC/ERR reporter cell line, luciferase ONE-Glo, 18 h; series mostly up to 92.4 µM
Results filed as inconclusive are left out. Calls of active or inactive are those of the source. Calls follow the shape of the dose curve; as a rule, active = well fitted activation curve with a large enough effect in the repeat runs; inconclusive = weak or mixed curves, or effect the other way; inactive = no such curve, though single readings can be large or run the other way.
Outcomes: active, inactive

CC(C)C1CCC(Cc2ccc(Cl)cc2)C1(O)Cn1cncn1 (stereo not drawn): inactive
CC(=O)/C=C/c1ccc2c(c1)OCO2: inactive
CCCCCCCCCCBr: inactive
Oc1c(Cl)c(Cl)cc(Cl)c1Cl: inactive
CCCN(CCC)c1c([N+](=O)[O-])cc(S(N)(=O)=O)cc1[N+](=O)[O-]: inactive
N#CSCSC#N: inactive
COc1ccc(N)cc1N: inactive
Clc1ccc(C(c2ccccc2Cl)C(Cl)(Cl)Cl)cc1 (stereo not drawn): inactive
Cc1ccc(C(=O)Cl)cc1: inactive
Clc1ccc(-c2ccccc2)cc1: inactive
Cc1ccc(CCl)cc1: inactive
Oc1ccc(C(c2ccc(O)cc2)(C(F)(F)F)C(F)(F)F)cc1: inactive
ClC1=C(Cl)C2(Cl)C3C(Cl)C(Cl)CC3C1(Cl)C2(Cl)Cl (stereo not drawn): inactive
O=C(CBr)c1ccc(O)cc1: inactive
CC(C)Oc1cccc(NC(=O)c2ccccc2C(F)(F)F)c1: inactive
Nc1ccc(Cc2ccc(N)c(Cl)c2)cc1Cl: inactive
O=C(CCl)Nc1ccccc1: inactive
C[C@]12CC[C@@H]3c4ccc(OC(=O)N(CCCl)CCCl)cc4CC[C@H]3[C@@H]1CC[C@@H]2O: inactive
CC(C)(c1ccc(O)c(-c2ccccc2)c1)c1ccc(O)c(-c2ccccc2)c1: inactive
CCOP(=S)(OCC)SCCS(=O)(=O)CC: inactive
N#Cc1ccccc1Cl: inactive
CCCCOCN(C(=O)CCl)c1c(CC)cccc1CC: inactive
C1CCC2CCCCC2C1 (stereo not drawn): inactive
COCC(=O)N(c1c(C)cccc1C)[C@H](C)C(=O)OC: inactive
CC(C)C(=O)Cl: inactive
COC(=O)N(C(=O)N1CO[C@@]2(C(=O)OC)Cc3cc(Cl)ccc3C2=N1)c1ccc(OC(F)(F)F)cc1: inactive
Oc1ccc(C(=C(Cl)Cl)c2ccc(O)cc2)cc1: inactive
COc1cccc2c1C(=O)c1c(O)c3c(c(O)c1C2=O)C[C@@](O)(C(=O)CO)CC3OC1CC(N2CCOC(OC)C2)C(O)C(C)O1 (stereo partly drawn): inactive
C[C@@H]1CC[C@@]2(OC1)O[C@H]1[C@@H](O)[C@H]3[C@@H]4CC[C@H]5C[C@@H](O[C@@H]6O[C@H](CO)[C@H](O[C@@H]7O[C@H](CO)[C@@H](O)[C@H](O[C@@H]8OC[C@@H](O)[C@H](O)[C@H]8O)[C@H]7O[C@@H]7O[C@H](CO)[C@@H](O)[C@H](O[C@@H]8O[C@H](CO)[C@@H](O)[C@H](O)[C@H]8O)[C@H]7O)[C@H](O)[C@H]6O)[C@H](O)C[C@]5(C)[C@H]4CC[C@]3(C)[C@H]1[C@@H]2C: inactive
C=CCOC(N)=O: inactive
O=C1c2ccccc2C(=O)C1C(=O)C(c1ccccc1)c1ccc(Cl)cc1 (stereo not drawn): inactive
C=CC(=O)N(C)C: inactive
C=CC(=O)OCCCCOC(=O)C=C: active
CCCCOP(=O)(CCCC)OCCCC: inactive
Nc1ccc(Cl)cc1C(=O)c1ccccc1: active
OC(Cc1ccccc1Cl)(Cn1cncn1)C1(Cl)CC1 (stereo not drawn): inactive
Clc1ccc(-c2ccc(Cl)c(Cl)c2Cl)c(Cl)c1Cl: inactive
O=c1c(C2CC(c3ccc(-c4ccc(Br)cc4)cc3)Cc3ccccc32)c(O)sc2ccccc12 (stereo not drawn): inactive
COP(=O)(CCC(=O)NCO)OC: inactive
O=C(CCl)C(Cl)Cl: inactive
C=CCC1=C(C)C(OC(=O)C2C(C=C(C)C)C2(C)C)CC1=O (stereo not drawn): inactive
CCc1cc(C)cc(CC)c1-c1c(OC(=O)C(C)(C)C)n2n(c1=O)CCOCC2: inactive
CC(c1ccc(O)cc1)c1ccc(O)cc1: inactive
N#CCc1ccc(Cl)cc1: inactive
CC(C)(C)c1cc([N+](=O)[O-])cc(C(C)(C)C)c1O: inactive
CC(C)N1C(=O)N(c2ccccc2)CSC1=NC(C)(C)C: inactive
N#Cc1c(-c2ccc(Cl)cc2)[nH]c(C(F)(F)F)c1Br: inactive
Clc1ccc(C(c2ccc(Cl)cc2)C(Cl)(Cl)Cl)cc1: inactive
